We begin with a simple list: items and their reported % Activation.
- TEST SYSTEM: ΔF508-CFTR (Homo sapiens, UniProt P13569, DEL508-508)
- Construct: host or cells: CFBE41o-, doxycycline-inducible
- Sequence (P13569 with tags, fused parts or gaps DEL508-508): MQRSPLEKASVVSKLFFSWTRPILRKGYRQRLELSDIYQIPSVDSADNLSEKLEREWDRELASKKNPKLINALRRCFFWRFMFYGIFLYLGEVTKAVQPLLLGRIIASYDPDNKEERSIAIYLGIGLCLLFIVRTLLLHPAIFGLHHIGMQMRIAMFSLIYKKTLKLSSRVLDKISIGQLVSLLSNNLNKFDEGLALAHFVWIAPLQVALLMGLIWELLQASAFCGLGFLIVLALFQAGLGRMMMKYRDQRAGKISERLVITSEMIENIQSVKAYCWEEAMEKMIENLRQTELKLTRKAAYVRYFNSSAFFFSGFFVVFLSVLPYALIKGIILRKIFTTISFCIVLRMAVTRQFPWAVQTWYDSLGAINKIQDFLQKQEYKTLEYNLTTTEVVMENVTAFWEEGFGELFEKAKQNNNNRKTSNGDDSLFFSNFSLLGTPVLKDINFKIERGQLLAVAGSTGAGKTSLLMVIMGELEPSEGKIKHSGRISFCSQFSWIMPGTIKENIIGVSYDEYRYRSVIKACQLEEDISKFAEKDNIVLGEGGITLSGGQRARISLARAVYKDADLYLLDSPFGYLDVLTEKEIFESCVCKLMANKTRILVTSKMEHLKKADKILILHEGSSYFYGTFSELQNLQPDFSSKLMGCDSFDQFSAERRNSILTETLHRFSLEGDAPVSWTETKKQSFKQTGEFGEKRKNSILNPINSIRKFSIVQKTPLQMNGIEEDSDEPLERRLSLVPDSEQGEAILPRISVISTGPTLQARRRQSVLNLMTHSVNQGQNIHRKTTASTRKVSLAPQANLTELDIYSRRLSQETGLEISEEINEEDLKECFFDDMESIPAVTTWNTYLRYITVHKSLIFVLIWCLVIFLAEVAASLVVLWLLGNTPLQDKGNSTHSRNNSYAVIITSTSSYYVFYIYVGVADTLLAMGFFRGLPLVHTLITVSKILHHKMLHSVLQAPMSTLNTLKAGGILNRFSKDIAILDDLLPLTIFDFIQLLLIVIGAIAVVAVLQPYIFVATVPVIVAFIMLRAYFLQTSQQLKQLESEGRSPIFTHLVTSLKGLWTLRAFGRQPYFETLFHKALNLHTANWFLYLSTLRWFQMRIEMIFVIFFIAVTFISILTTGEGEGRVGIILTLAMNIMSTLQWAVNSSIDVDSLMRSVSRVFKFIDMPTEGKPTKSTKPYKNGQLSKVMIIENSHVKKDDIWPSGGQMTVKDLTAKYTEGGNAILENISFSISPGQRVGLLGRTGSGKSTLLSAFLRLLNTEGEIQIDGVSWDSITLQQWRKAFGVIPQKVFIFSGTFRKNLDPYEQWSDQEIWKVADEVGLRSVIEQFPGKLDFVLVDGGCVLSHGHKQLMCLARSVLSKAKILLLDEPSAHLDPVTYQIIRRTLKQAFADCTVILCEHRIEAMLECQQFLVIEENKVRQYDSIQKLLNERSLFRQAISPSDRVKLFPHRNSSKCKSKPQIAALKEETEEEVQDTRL
- PROCEDURE TEXT: CFTR cell surface levels using HRP-tagged ΔF508-CFTR expressing CFBE cells, intrinsic corrector capacity
- Type: cell-based
- Parameters: concentration or dose not given beside the values
- MEASUREMENT CONTEXT: HRP-tagged ΔF508-CFTR expressing CFBE41o- cells; compound alone (intrinsic corrector capacity); 20 hours at 33° C.
MEASUREMENT NAME: % Activation (%)

INSERT INTO assay_data (compound, test_system, readout_number) VALUES
  ('CC(C)c1nn(-c2ccc(F)cc2)c2nc(C(=O)NS(C)(=O)=O)cc(N3CCN(CC(F)(F)F)CC3)c12', 'ΔF508-CFTR (Homo sapiens, UniProt P13569, DEL508-508)', 161.5),
  ('COCC1CCN(c2cc(C(=O)NS(=O)(=O)N3CCN(C4CC4)CC3)nc3c2c(C2CCC2)nn3-c2ccc(F)cc2)CC1', 'ΔF508-CFTR (Homo sapiens, UniProt P13569, DEL508-508)', 202.53),
  ('COCCS(=O)(=O)NC(=O)c1cc(N2CCN(C(=O)OCC(C)C)CC2)c2c(C3CCC3)nn(-c3ccc(F)cc3)c2n1', 'ΔF508-CFTR (Homo sapiens, UniProt P13569, DEL508-508)', 354.9),
  ('CS(=O)(=O)NC(=O)c1cc(-c2ccc(N3CCC(C#N)CC3)nc2)c2c(OC3CCOC3)nn(-c3ccccc3)c2n1 (centres unmarked)', 'ΔF508-CFTR (Homo sapiens, UniProt P13569, DEL508-508)', 155.4),
  ('CC(C)c1nn(-c2cccc(N(C)C)n2)c2nc(C(=O)NS(C)(=O)=O)cc(-c3ccc(N4CCOCC4)cc3)c12', 'ΔF508-CFTR (Homo sapiens, UniProt P13569, DEL508-508)', 369.87),
  ('CS(=O)(=O)NC(=O)c1cc(OCCN2CCS(=O)(=O)CC2)c2c(C3CCC3)nn(-c3ccccc3)c2n1', 'ΔF508-CFTR (Homo sapiens, UniProt P13569, DEL508-508)', 78.11),
  ('CN(C)S(=O)(=O)NC(=O)c1cc(N2CCC(N3CCC(O)CC3)CC2)c2c(C3CCC3)nn(-c3ccc(F)cc3)c2n1', 'ΔF508-CFTR (Homo sapiens, UniProt P13569, DEL508-508)', 207.5),
  ('CN1CCN(S(=O)(=O)NC(=O)c2cc(N3CCC(N4CCOCC4)CC3)c3c(C4CCC4)nn(-c4ccc(F)cc4)c3n2)CC1', 'ΔF508-CFTR (Homo sapiens, UniProt P13569, DEL508-508)', 100.59),
  ('CC(C)c1nn(C2CCCCC2)c2nc(C(=O)NS(C)(=O)=O)cc(-c3cnc(N(C)C)nc3)c12', 'ΔF508-CFTR (Homo sapiens, UniProt P13569, DEL508-508)', 143.05),
  ('CCS(=O)(=O)NC(=O)c1cc(-c2ccc(N3CCOCC3)nc2)c2c(C)nn(-c3ccc(F)cc3F)c2n1', 'ΔF508-CFTR (Homo sapiens, UniProt P13569, DEL508-508)', 184.35),
  ('CC(C)c1nn(C2CCCOC2)c2nc(C(=O)NS(C)(=O)=O)cc(-c3ccc(N4CCC(C#N)CC4)nc3)c12 (centres unmarked)', 'ΔF508-CFTR (Homo sapiens, UniProt P13569, DEL508-508)', 112.03),
  ('CS(=O)(=O)NC(=O)c1cc(N2CCC3(CCO3)CC2)c2c(C3CCC3)nn(-c3ccccc3)c2n1', 'ΔF508-CFTR (Homo sapiens, UniProt P13569, DEL508-508)', 103.02),
  ('CC(C)c1nn(-c2ccc(F)cc2)c2nc(C(=O)NS(C)(=O)=O)cc(OCC3(C)CC(F)(F)C3)c12', 'ΔF508-CFTR (Homo sapiens, UniProt P13569, DEL508-508)', 146.7),
  ('COC1CCCN(C2CCN(c3cc(C(=O)NS(C)(=O)=O)nc4c3c(C3CCC3)nn4-c3ccc(F)cc3)CC2)C1 (centres unmarked)', 'ΔF508-CFTR (Homo sapiens, UniProt P13569, DEL508-508)', 277.1);
